Sourced from PubChem BioAssay AID1851

biological target: Cytochrome P450 2C19 (Homo sapiens) (UniProt P33261); assay: Cytochrome panel assay with activity outcomes; conditions: recombinant CYP, pro-luciferin dealkylation, luminescence, p450-cyp2c19; series mostly up to 57.1 µM
Sequence (P33261 whole entry, looked up): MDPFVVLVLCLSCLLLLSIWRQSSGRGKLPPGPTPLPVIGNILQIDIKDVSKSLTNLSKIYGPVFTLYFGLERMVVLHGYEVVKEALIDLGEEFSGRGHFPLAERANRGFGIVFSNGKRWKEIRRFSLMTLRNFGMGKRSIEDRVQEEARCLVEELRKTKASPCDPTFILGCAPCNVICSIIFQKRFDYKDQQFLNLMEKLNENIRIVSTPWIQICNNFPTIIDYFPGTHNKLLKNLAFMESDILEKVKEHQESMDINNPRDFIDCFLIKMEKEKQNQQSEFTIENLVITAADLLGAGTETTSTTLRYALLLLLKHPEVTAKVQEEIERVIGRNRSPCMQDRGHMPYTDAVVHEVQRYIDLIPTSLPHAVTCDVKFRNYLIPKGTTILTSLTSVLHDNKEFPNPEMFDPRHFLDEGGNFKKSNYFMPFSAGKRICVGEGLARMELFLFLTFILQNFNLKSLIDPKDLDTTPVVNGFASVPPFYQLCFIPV
About 5,800 (36%) of roughly 16,000 compounds were called active. Another 23% or so got no clear call; they are omitted. The call rests on the fitted dose curve; in most records, active means well fitted curve in the direction sought with a large enough effect; inconclusive means small, poorly fitted or top-dose-only effect, or effect the other way; inactive means no such curve, though single readings can be large or run the other way. The list shows a part of the results.
Outcomes you can answer with include only these: 1 (yes) = active, 0 (no) = inactive

Reference set, count: 5
Which outcome did this test record for the compound `CCCCCn1c(CN2CCN(c3cc(Cl)ccc3C)CC2)nc2c1c(=O)[nH]c(=O)n2C` ?
1 (yes)

Which outcome did this test record for the compound `CC(=O)/C(=C\c1ccccc1F)C(=O)c1ccccc1` ?
1 (yes)

Which outcome did this test record for the compound `CC(=C\C(=O)O)/C(=C/c1ccccc1)C(=O)O` ?
0 (no)

Which outcome did this test record for the compound `CCOC(=O)c1ccccc1OCc1cc(/C=N/n2cnnc2)ccc1OC` ?
1 (yes)

Which outcome did this test record for the compound `CC(C)N(C(=O)CSc1nc2ccccc2n1-c1ccccc1)C(C)C` ?
1 (yes)

More entries:
Which outcome did this test record for the compound `C1=C(CN2CCOCC2)COc2c1cccc2OC[C@@H]1CNCCO1` ?
0 (no)

====

target: Cytochrome P450 2C19 (Homo sapiens); assay: Cytochrome panel assay with activity outcomes; details: recombinant CYP, pro-luciferin dealkylation, luminescence, p450-cyp2c19; series mostly up to 57.1 µM; on activity, negative = inhibition: on the % scale 0 is the no-effect control and ±100 the full control effect
The whole screen tested about 16,000 compounds, of which about 5,800 (36%) were called active. Not shown: some 23% with an inconclusive outcome. The list shows a part of the results.
# activity, negative = inhibition per entry

These recorded examples may help you get a feel for the data.
Lab note: measured activity, negative = inhibition of `CC[C@](N)(C(=O)O)C(C)C` was 31.3% [at 11.4 µM] (inactive)

Lab note: measured activity, negative = inhibition of O=[N+]([O-])c1ccc2c(c1)S(=O)c1ccccc1-2 (configuration not stated) was 14.6% [at 11.4 µM] (inactive)

Lab note: measured activity, negative = inhibition of `CC1=NNC(=S)NCCCN2CCN(CCCNC(=S)NN=C(C)C=NNC(=S)NCCCN3CCN(CCCNC(=S)NN=C1)CC3)CC2` was 27% [at 11.4 µM] (inactive)

Lab note: measured activity, negative = inhibition of `OCCCSCCO` was 18.7% [at 11.4 µM] (inactive)

More entries:
Lab note: measured activity, negative = inhibition of `O=C(O)c1ccccc1C(=O)Nc1cc2c(cc1Br)-c1ccccc1C2=O` was -19.4% [at 11.4 µM] (inactive)

Lab note: measured activity, negative = inhibition of `NS(=O)(=O)c1ccc(N=Nc2c(O)c(C(=O)O)cc3ccccc23)cc1` was 9.68% [at 11.4 µM] (inactive)

Lab note: measured activity, negative = inhibition of `CN(C)CCCN1c2ccccc2C(C)(C)c2ccccc21` was 1.8% [at 11.4 µM] (inactive)

Lab note: measured activity, negative = inhibition of `O=C(O)c1cc(N=Nc2ccc([N+](=O)[O-])cc2)ccc1O` was -3.05% [at 11.4 µM] (inactive)

Lab note: measured activity, negative = inhibition of `CC(=O)OCC(=O)[C@]12OC(C)(C)O[C@@H]1C[C@H]1[C@H]3CC=C4C[C@@H](O)CC[C@]4(C)[C@H]3CC[C@]12C` was 4.13% [at 11.4 µM] (inactive)

Lab note: measured activity, negative = inhibition of `NCCNCC1CCNCC1` was 2.44% [at 11.4 µM] (inactive)

Lab note: measured activity, negative = inhibition of `O=C1CN2CCN(CC2)CC(=O)Nc2ccc(cc2)S(=O)(=O)c2ccc(cc2)NC(=O)CN2CCN(CC2)CC(=O)Nc2ccc(cc2)S(=O)(=O)c2ccc(cc2)N1` was -8.07% [at 11.4 µM] (inactive)

Lab note: measured activity, negative = inhibition of `Cc1ccc(S(=O)(=O)N[C@H]2COC(=O)C/C=C\[C@@H](C)[C@H](NS(=O)(=O)c3ccc(C)cc3)COC(=O)C/C=C\[C@H]2C)cc1` was 30.4% [at 11.4 µM] (inactive)

Lab note: measured activity, negative = inhibition of `CN(C)CCCN1c2ccccc2Sc2cnccc21` was 34.5% [at 11.4 µM] (inactive)

Lab note: measured activity, negative = inhibition of `CCN=C(N)CSS(=O)(=O)O` was -0.003% [at 11.4 µM] (inactive)

Lab note: measured activity, negative = inhibition of `Cc1cc2c(nc1C)CCCCN2C[C@H](C)O/N=C\[C@@H](C)[C@H](OCc1ccccc1)C(C)C` was -20.8% [at 11.4 µM] (inactive)

Lab note: measured activity, negative = inhibition of `O=C(O)CC[C@]1(C(=O)O)CCC(=O)c2ccccc21` was 22.5% [at 11.4 µM] (inactive)

Lab note: measured activity, negative = inhibition of `Oc1c(Cl)cc(CN(Cc2cc(Cl)c(O)c(Cl)c2)C2CCCCC2)cc1Cl` was -4.32% [at 11.4 µM] (inactive)

Lab note: measured activity, negative = inhibition of `c1ccc2c(c1)C(=Nc1ccc(N=C3c4ccccc4-c4ccccc43)cc1)c1ccccc1-2` was -36.8% [at 11.4 µM] (inactive)

Lab note: measured activity, negative = inhibition of `O=C(O)Cc1cccnc1` was 9.66% [at 11.4 µM] (inactive)
